experiment: soluble on expression in E. coli; label from the status in PepcDB or PDB records
EXPERIMENTAL READOUT: soluble on expression in E. coli

Known soluble on expression in E. coli results, listed for orientation:
CONSTRUCT SEQUENCE	soluble on expression in E. coli
MSTTFPLHTESFMLLDSGCLTNSDYFLPFALTDVLTTFSGMQHQPIIHFWQLDQAMILGMKDTRVPHLKEGIASLQENDYSVVVRNAGGLGVIADSGILNVSLILPNNSEHKLSIDAAYELMWAWLRQSFPEKEIDAFEITTSYCPGTYDLSIGGQKFAGIAQRRVKDGISVMIYISVNGNQLARGEVVRDFYLAGLQEQFGENGYPPVDPAVMANLETLIETPLTIDAVKTRLIEALPQQFEKSIDPNLTEPIITSEWFQTNLTVQLEKMAQRNALIKGEIL	not soluble
MYDAALGRWHAVDPMSEKYYSWSPYTYCKNNPVLRIDLDGKDDYVISRSGRLFNETPIDKRGKGSTDNLYLSSDRSISVTVNQGLLGEMHSMQAKEQKENRVKKSYGSTQDLETAATVFKFAADHTTVEWKLDVYDDNGTRTAVVATDRDPYGVDNGVYAQNKLSVKGEKVIDIHSHLPGGTKGGAGNDFNLAKPQRKNAVYMKDNRVSTDKKDMIYEYTKNASRVNSIRVYDATDLLQYIKRK	not soluble
MRRVEKVIIVEGRSDKQKVAAVLNEPVVIVCTNGTISDARLEELADELEGYDVYLLADADEAGEKLRRQFRRMFPEAEHLYIDRAYREVAAAPIWHLAQVLLRARFDVRIESLMRGRGE	soluble
MKRQKRDRLERAQSQGYKAGLNGRSSEHCPYQSMDARSCWLGGWRDARDDKQSGLFKLEHHHHHH	not soluble

Now turn to the next sequence.
Exercise: Report soluble on expression in E. coli for `MRVALTIAGSDSGGGAGVQADLKVFFRFGVYGTSALTLVTAQNTLGVQRVHLLPPEVVYAQIESVAQDFPLHAAKTGALGDAAIVEAVAEAVRRFGVRPLVVDPVMVAKSGDPLLAKEAAAALKERLFPLADLVTPNRLEAEALLGRPIRTLKEAEEAAKALLALGPKAVLLKGGHLEGEEAVDLLATRGGVLRFSAPRVHTRNTHGTGCTLSAAIAALLAKGRPLAEAVAEAKAYLTRALKTAPSLGHGHGPLDHWA` please.
Key: soluble

###

experiment: soluble on expression in E. coli; label from the status in PepcDB or PDB records

CONSTRUCT SEQUENCE	soluble on expression in E. coli
MSLTADVDYPLLAKMRSASRRALTSLVDWFGTMAQDLDHQGLTTLAGELVSVARLLDREAVVTRYLTVPAEDATPRIRLIERLVSGKVGAPTLEVLRTAVSKRWSANSDLIDAIEHVSRQALLELAERAGQVDEVEDQLFRFSRILDVQPRLAILLGDCAVPAEGRVRLLRKVLERADSTVNPVVVALLSHTVELLRGQAVEEAVLFLAEVAVARRGEIVAQVGAAAELSDAQRTRLTEVLSRIYGHPVTVQLHIDAALLGGLSIAVGDEVIDGTLSSRLAAAEARLPDEGHHHHHH	soluble
GQLAQDGVPEWFHGAISREDAENLLESQPLGSFLIRVSHSHVGYTLSYKAQSSCCHFMVKLLDDGTFMIPGEKVAHTSLDALVTFHQQKPIEPRRELLTQPCRQKD	soluble
MGHHHHHHSHMAEAKPDVWKSYNVGTVLFEDKASETKGSDIYHRIIPDAESYIKEQARTVLATLYNSPEDSITPVNKIHYTLEDIEGISAKGGGNGDVTIFYSTRHIEKSFAENDTAKLFFETRGVLLHELTHAYQLEPQGIGSYGTNRVFWAFIEGMADAVRVANGGFDGPNARPKGGNYMDGYRTAGYFFVWLRDNKDPEFLRKFNRSTLEVIPWSFDGAIKHILGTEYSIDELWHEYQVAVGDIQV	soluble

###

experiment: soluble on expression in E. coli; label from the status in PepcDB or PDB records
EXPERIMENTAL READOUT: soluble on expression in E. coli

Known soluble on expression in E. coli results, listed for orientation:
CONSTRUCT SEQUENCE	ENDPOINT RESULT
GMAEQMRRVARLFGDWPETIIWTCLEGTMGDIYVDDSQSPQSALALYGRQSFFGFLAGQPHRDLLKICEGKNIILVPQNQAWSDLIEEVYGDGVRFFTRYATKKDTEFDLGHLQKLVDDLPESFDMKLIDRNLYETCLVEEWSRDLVGNYIDVEQFLDLGLGCVILHKGQVVSGASSYASYSAGIEIEVDTREDYRGLGLAKACAAQLILACLDRGLYPSWDAHTLTSLKLAEKLGYELDKAYQAYEWR	soluble
MGSDKIHHHHHHMHRLPPLRAIQVFDSVARNQSFSIAASQLAITQGAVSKQVKLLEEFYAEKLFIRCGTNIELTKKGTWLAYQLTPIFDQLNGICNFNSISRGKIRIATYPSLSLGYLTYEIEQFNSAHPNIDVEIILAINHPTMCDEIADLFITTEESIDGYHYQQLFQERLIPVISPKIINDTTIIKIKDLTGYTLLVTNGKENSDWQLWFNHHNLKPAIYQKMNMFSDALLSTRAAELGNGIALSCEVTAHRDIIDGRLCKVGLPSAPTGRRYFLCCKNRRRYEPNIKLLSDWINKKFIND	not soluble
SSRAKRIMKEIQAVKDDPAAHITLEFVSESDIHHLKGTFLGPPGTPYEGGKFVVDIEVPMEYPFKPPKMQFDTKVYHPNISSVTGAICLDILRNAWSPVITLKSALISLQALLQSPEPNDPQDAEVAQHYLRDRESFNKTAALWTRLYASETSNGQKGNVEESDLYGIDHDLIDEFESQGFEKDKIVEVLRRLGVKSLDPNDNNTANRIIEELLK	soluble
MGSDKIHHHHHHMLNDRARILLKTLVERYISEGEPVGSRTLSKHAGLDLSPASIRNIMSDLEEMGFVASPHTSAGRVPTPRGYRFFVDTLLTVRPLDQVSVNHLENSLAASDPQRLMTAASTLLSDLSQFAGLVMTPRRNPAFRQIEFLTLSDKRVLLIIVTMEGEVENRVIVTEQSYSAAALTEAANYFNQNFAGHSFDHVRSKLRDELGRMRDDITRLMAAAVDAGTQALDASQDNVVVSGSRKLLDVEELSSNMRSLRRLFDAFEKKTGLLQLLDQSRSAAGVQIFIGGESELLPLDECSLVTAPYSVDGVVVGTLGVVGPTRMAYERVVPIVDVTAKILSSALSQHK	not soluble

Now turn to the next sequence.
Exercise: Report soluble on expression in E. coli for `MGSDKIHHHHHHMIDTFERTGPLMEASSYPAWAQQLINDCSPAKARVVEHELYQQMRDAKLSPQIMRQYLIGGWPVVEQFAVYMAKNLTKTRFGRHPGEDMARRWLMRNIRVELNHADYWVNWCAAHDVTLEDLHDQRVAPELHALSHWCWQTSSSDSLAVAMAATNYAIEGATGEWSAVVCSTGVYAEAFAEETRKKSMKWLKMHAQYDDAHPWEALEIICTLVGNKPSLQLQAELRQAVTKSYDYMYLFLERCIQLDKVKSPRGRVAALEM` please.
Key: not soluble

###

experiment: soluble on expression in E. coli; label from the status in PepcDB or PDB records
EXPERIMENTAL READOUT: soluble on expression in E. coli

Known soluble on expression in E. coli results, listed for orientation:
CONSTRUCT SEQUENCE	soluble on expression in E. coli
MSDKFNQFINRVLSHEGGYANHPKDPGGETNWGITKRTAQANGYNGSMRAMTREQAISIYRKAFWERYRADQMPEAVAFQFFDACVNHGYGNAARMLQRAAGVPDDGVIGAVSLKAINSLPENDLLLRFNAERLVFYTKLGTFTSFGKGWVRRVAQNLIHASADNTD	soluble
TKDFGYSFNANYATNTNEVKALGPGNAPIISTGSVDHAYYITKVGEPIGCYYLLVQDGIFSNEEELKKYPHFSNTQPGDFRFVDVDGDGVMDLDKDRTIVGNYMPDFTYGFGGKVWYKGIDLDFNFQGVYGNEILNLNRRYIDNLEGNTNGTTIALNRWKSADNPGNGQVNRANRKSKGYNGRTSTWHLEDGSYLRLQNVTLGYTLPQNLTRRFFVEKLRVYVSGQNLWTSTNYGGYNPEVNARPSNSLSPGEDYGTYPLAKTFLFGLNITL	not soluble
MGHHHHHHSHMTDCEFGYIYRLAQDYLQCVLQIPQPGSGPSKTSRVLQNVAFSVQKEVEKNLKSCLDNVNVVSVDTARTLFNQVMEKEFEDGIINWGRIVTIFAFEGILIKKLLRQQIAPDVDTYKEISYFVAEFIMNNTGEWIRQNGGWENGFVKKFEPKSGWMTFLEVTGKICEMLSLLKQYC	not soluble
MAHHHHHHMCAKESCRAVNQGIRKECESCGTEKPQLLGWKCEGCSTINHAGVRKCKKCADASDKSKEFWMCAVCHENNRVDEIEDNSRCGFCGYDMAPHSVAEEEILRRATEKTVMLQQQQEHFDSVSYTEADEQFTNPLEGAEALDPSLRAIHPGSEAPITGRVLKLPAVAPFVAGGVPETRHSPLHQRRKVHPALQTVLEGATAPEGPPGFDWMCRDSSCGHINPGDEESCLKCGSHITPAEWEVPVMRVLEPPGTLALLLLQKPHSGLLDLQCVSGDDEHL	not soluble
MDALVEDDICILNHEKAHKRDTVTPVSIYSGDESVASHFALVTAYEDIKKRLKDSEKENSLLKKRIRFLEEKLIARFEEETSSVGREQVNKAYHAYREVCIDRDNLKSKLDKMNKDNSESLKVLNEQLQSKEVELLQLRTEVETQQVMRNLNPPSSNWEVEKLSCDLKIHGLEQELELMRKECSDLKIELQKAKQTDPYQEDNLKSRDLQKLSISSDNMQHAYWELKREMSNLHLVTQVQAELLRKLKTSTAIKKGKSLFTGNH	soluble

Exercise: Report soluble on expression in E. coli for `MPNIVLSRIDERLIHGQVGVQWVGFAGANLVLVANDEVAEDPVQQNLMEMVLAEGIAVRFWTLQKVIDNIHRAADRQKILLVCKTPADFLTLVKGGVPVNRINVGNMHYANGKQQIAKTVSVDAGDIAAFNDLKTAGVECFVQGVPTEPAVDLFKLL` please.
Key: soluble

Exercise: Report soluble on expression in E. coli for `MSLEPDELFDIEMRLLLHGVRQVYGHDFTDYSEASIKRRITQWFATSGYGTLSEAQAAILRNREAFDSLLRGITVNVSEMFRDPAFFRALREEIVPHLKTYPFVKIWHAGCSSGEEAYSLAILLEEEGMKGRFRMYATDINNEVLQNAREGIFPLKEMQKYTRNYQAAGGKGAFSDYYLARYEHAIMIQSLRDQIVFASHNLAVDADFGEMHLILCRNVLIYFKPTLKERVLRLFDTCLIPGGFLCLGLKESLDGRRIASRYAETVERMRIYRKSYGQEQSEGHHHHHH` please.
Key: not soluble
